tested on: CNS GC 4538; assay: Broth dilution MIC; assay type: cell-based; conditions: Mueller-Hinton broth, 18 hours at 35° C.
For each of the compounds below, state its Antimicrobial Activity (MIC).

Exercise: Can you look up the measured Antimicrobial Activity (MIC) of COC1C(OC(C(NCCCNC(=O)C(NC(=O)C(NC(=O)NC(C(=O)O)C(C)C)C2CCNC(=N)N2)C(O)C(C)C)C(=O)O)C2OC(n3ccc(=O)[nH]c3=O)C(O)C2O)OC(CN)C1O (centres unmarked) for me?
Key: >32 µg/mL

Exercise: Can you look up the measured Antimicrobial Activity (MIC) of COC1C(OC(C(NCCCNC(=O)C(NC(=O)C(NC(=O)NC(C(=O)O)C(C)C)C2CCNC(=N)N2)C(OC(=O)CCCCCC(C)C)C(C)C)C(=O)O)C2OC(n3ccc(=O)[nH]c3=O)C(O)C2O)OC(CN)C1O (centres unmarked) for me?
Key: 32 µg/mL

Exercise: Can you look up the measured Antimicrobial Activity (MIC) of CC(C)CC(NC(=O)C(NC(=O)NC(C(=O)O)C(C)C)C1CCNC(=N)N1)C(=O)NCCCNC(C(=O)O)C(OC1OC(CN)C(O)C1O)C1OC(n2ccc(=O)[nH]c2=O)C(O)C1O (centres unmarked) [AA-896-D2] for me?
Key: >32 µg/mL

Exercise: Can you look up the measured Antimicrobial Activity (MIC) of CCC(C)CCCCC(=O)OC(C(C)C)C(NC(=O)C(NC(=O)NC(C(=O)O)C(C)C)C1CCNC(=N)N1)C(=O)NCCCNC(C(=O)O)C(O[C@@H]1O[C@H](CN)[C@@H](O)[C@H]1OC)C1OC(n2ccc(=O)[nH]c2=O)C(O)C1O (some centres unmarked) for me?
Key: >32 µg/mL

Exercise: Can you look up the measured Antimicrobial Activity (MIC) of CC(C)CC(NC(=O)C(NC(=O)NC(C(=O)O)C(C)C)C1CCNC(=N)N1)C(=O)NCCCNC(C(=O)O)C(OC1CC(O)C(CN)O1)C1OC(n2ccc(=O)[nH]c2=O)C(O)C1O (centres unmarked) for me?
Key: >32 µg/mL

Source of measurements: patent US7078195B2
